Where do these numbers come from? They come from PubChem BioAssay.

# Assayed System: Follistatin-related protein 3 (Homo sapiens)
# Protocol Notes: FSTL3 binders on small-molecule microarrays, primary screen, biochemical, small-molecule microarray, 635 nm fluorescence (AID 1105);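 further: score merges emission near 667 nm and signal to noise per printed spot across three slides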
# Condition Context: FSTL3 binding, higher = more signal
A collection of compounds and their measured composite z-score
// print number alone

Exercise: So what does the record say about composite z-score for "COCCn1c(C(=O)N2CCCC2)cc2c1C[C@H]1CN(C(=O)c3ccccc3)[C@@](Cc3ccc(F)cc3)(C(=O)OC)[C@@H]21" ?
Solution: 0.664

Exercise: Look up composite z-score for this compound: "C=CC[C@]1(C(=O)N2CCCCC2)N=C(c2ccc(OCCCO)cc2)O[C@H]1c1ccccc1"
Solution: -0.0013

* * *

# Protocol Notes: basal 3T3-L1 adipocyte mitochondrial potential changes, profiling panel, cell-based, JC-1 fluorescence, 3T3-L1 adipocytes, 24 h, 100 nL compound (AID 1168)
# Condition Context: JC-1 mitochondrial fluorescence, higher = more signal, called active from +8 up or from −8 down
Property Measured: z-score
# print the numeric value only

In the examples that follow, each entry is paired with its recorded z-score.
INSERT INTO results (molecule, property_measured, data_value) VALUES
  ('COCC(=C=CC[C@@H](O)c1ccccc1OCCO)C[C@@H](O)c1cc(Cl)cc(Cl)c1O', 'z-score', -1.69),
  ('CCOC(=O)[C@H]1C/C=C/C[C@H](C(=O)OCC)C(=O)O[C@H]2[C@@H](OC)O[C@H](CO)[C@@H](OC(=O)Nc3ccc(C#N)cc3)[C@@H]2OC1=O', 'z-score', 1.14),
  ('COCCOC(=O)N1C(=O)[C@@]2(c3cc(C#Cc4ccc(OC)cc4)ccc31)[C@H](c1ccccc1OCCO)N1[C@H](c3ccccc3)[C@H](c3ccccc3)OC(=O)[C@H]1[C@@H]2C(=O)N1CCN(c2ncccn2)CC1', 'z-score', 2.41),
  ('COc1ccc(CCNC(=O)[C@@H]2c3ccccc3C(=O)N(C3Cc4ccccc4C3)[C@H]2c2ccc(CO)cc2)cc1', 'z-score', 0.00592),
  ('COCCOC(=O)N1C(=O)[C@@]2(c3cc(C#CCNC(N)=O)ccc31)[C@H](C(=O)NC[C@H](O)c1ccccc1)[C@H]1C(=O)O[C@H](c3ccccc3)[C@H](c3ccccc3)N1[C@@H]2c1ccccc1OCCO', 'z-score', 0.749);

Exercise: Using the record for "CC(=O)NCCCC[C@@H]1NC(=O)[C@@H]2C[C@H](C(=O)NCCCCCCNC(=O)CS)[C@H](c3cccc(OCCO)c3)N2C1=O" , report its z-score.
Solution: 0.0104

Exercise: Please report the recorded z-score for [N-]=[N+]=NCc1ccccc1C[C@]1(C(=O)NCC(O)CO)N=C(c2ccc(OCCCO)cc2)O[C@H]1c1ccccc1 (some centres not stated) .
Solution: -0.142

Exercise: Name the recorded z-score for "C=CCOC(=O)[C@H]1[C@@H]2C(=O)O[C@@H](c3ccccc3)[C@@H](c3ccccc3)N2[C@@H](c2ccc(OCCOC(=O)[C@@H]3C[C@@H]4C(=O)N5CCC[C@H]5C(=O)N4[C@@H]3c3cccc(OCCO)c3)cc2)[C@]12C(=O)Nc1ccccc12" .
Solution: -0.0892

Exercise: Need z-score, item "COCCOC(=O)N1C(=O)[C@@]2(c3ccccc31)[C@H](c1ccc(O)cc1)N1[C@H](c3ccccc3)[C@H](c3ccccc3)OC(=O)[C@H]1[C@@H]2C(=O)NC[C@H](O)c1ccccc1"
Solution: -0.184

* * *

# Test system: XIP peptide (Xip251-270)
# Protocol Notes: small-molecule binders of XIP peptide, primary screen, biochemical, small-molecule microarray, fluorescence 635/667 nm, 0.5 µg/mL protein (AID 1183)
# Condition Context: small-molecule microarray binding, fluorescence 635 nm; higher = more signal
Label T for high-side composite z-score (at or above 0.05) and F for low-side composite z-score (below it).

Reference set (8 entries):
INSERT INTO assay_data (compound, assayed_system, assigned_class) VALUES
  ('O=C1O[C@H](c2ccccc2)[C@H](c2ccccc2)N2[C@H]1[C@@H](C(=O)NC[C@H](O)c1ccccc1)[C@]1(C(=O)Nc3ccccc31)[C@H]2c1ccc(OCCO)cc1', 'XIP peptide (Xip251-270)', 'T'),
  ('O=C1NC(=O)C2C1C=CC(C(O)c1cccc3ccccc13)N2Nc1ccccn1 (centres undefined)', 'XIP peptide (Xip251-270)', 'T'),
  ('Cc1ccc(S[C@]2(C(=O)NCCN3CCOCC3)CC(=O)N(Cc3ccccc3)[C@@H]2c2ccc(CO)cc2I)cc1', 'XIP peptide (Xip251-270)', 'F'),
  ('COCCCNC(=O)C1N=C(c2ccc(OCCCO)cc2)N(c2ccccc2)O1 (centres undefined)', 'XIP peptide (Xip251-270)', 'T'),
  ('CC(C)c1ccc(NN2C(C(O)C(c3ccccc3)c3ccccc3)C=CC3C(=O)N(c4ccccc4)C(=O)C32)cc1 (centres undefined)', 'XIP peptide (Xip251-270)', 'T'),
  ('COCCOC(=O)N1C(=O)[C@@]2(c3cc(C#Cc4ccc(OC)cc4)ccc31)[C@H](C(N)=O)[C@H]1C(=O)O[C@H](c3ccccc3)[C@H](c3ccccc3)N1[C@@H]2c1ccccc1OCCO', 'XIP peptide (Xip251-270)', 'T'),
  ('C#CCNC(=O)[C@H](Cc1ccccc1)NC(=O)CCC(=O)O', 'XIP peptide (Xip251-270)', 'F'),
  ('COC(=O)c1c(CC[C@@H](CO)NC(=O)N[C@H](Cn2cc(Cc3ccccc3)nn2)C(C)C)oc(C(C)=O)c1C(=O)OC', 'XIP peptide (Xip251-270)', 'F');

Exercise: Evaluate "C=C(CCCC)C(=O)CC[C@H](OC(C)=O)c1cccc(OCCO)c1" : composite z-score at minimum 0.05?
Solution: F

Exercise: Does the compound "COc1ccc(CCNC(=O)[C@@]2(C)c3ccccc3C(=O)N(Cc3cc(F)cc(C(F)(F)F)c3)[C@H]2c2ccc(CO)cc2)cc1" have recorded composite z-score that is 0.05 or more?
Solution: T

Exercise: For this compound, is measured composite z-score 0.05 or higher? "COCCOC(=O)N1C(=O)[C@@]2(c3cc(C#CCCO)ccc31)[C@H](C(=O)N1CCc3cc(OC)c(OC)cc3C1)[C@H]1C(=O)O[C@H](c3ccccc3)[C@H](c3ccccc3)N1[C@@H]2c1ccc(O)cc1"
Solution: T

Exercise: Answer whether composite z-score of "C[C@@]1([C@@H](NC(=O)c2ccccc2)c2ccc(-c3ccccc3)cc2)C[C@H]1C1CCCCC1" is greater than or equal to 0.05.
Solution: F

Exercise: # bool: composite z-score of CCC(CC)C(O)C1C=CC2C(=O)N(C)C(=O)C2N1Nc1ccccc1 (centres undefined) >= 0.05
Solution: T

Exercise: Confirm if composite z-score reported for the compound "C=CCOC(=O)[C@@H]1[C@H]2C(=O)O[C@H](c3ccccc3)[C@H](c3ccccc3)N2[C@H](c2ccc(OCCOC(=O)[C@@H]3C[C@@H]4C(=O)N[C@@H](Cc5ccccc5)C(=O)N4[C@@H]3c3ccc(O)cc3)cc2)[C@@]12C(=O)Nc1ccc(I)cc12" is 0.05 or above.
Solution: T

* * *

# Protocol Notes: fission yeast growth modulation, primary screen, strain 972, OD600, 24 h, no modulator (AID 1090);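 further: basal condition with compound alone and no growth modifier present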
# Condition Context: S. pombe 972 growth, higher = more signal, called active from +8 up or from −8 down
The reader will find reported z-score values listed item by item below.
When you answer, write just the number.

Please review the following examples before continuing.
INSERT INTO measurements (compound, data_value) VALUES
  ('COc1ccc(C(O)C2C=CC3C(=O)N(c4ccccc4)C(=O)C3N2Nc2ccccc2F)cc1OCc1ccccc1 (stereo unspecified)', 0.754),
  ('CN1C(=O)[C@]2(Cc3ccccc3)N=C(c3ccc(OCCCO)cc3)O[C@@H]2c2ccccc21', -3.36),
  ('CC(C)(C)OC(=O)CC[C@]1(C(=O)NCC(O)CO)COC(c2ccc(OCCCO)cc2)=N1 (stereo partly specified)', 1),
  ('COCCOC(=O)N1C(=O)[C@@]2(c3cc(C#Cc4ccc(OC)cc4)ccc31)[C@H](C(=O)N1CCCCCCC1)[C@H]1C(=O)O[C@H](c3ccccc3)[C@H](c3ccccc3)N1[C@@H]2c1ccc(OCCO)cc1', 0.0405),
  ('NC(=O)[C@@H]1[C@H]2C(=O)O[C@H](c3ccccc3)[C@H](c3ccccc3)N2[C@H](c2ccc(O)cc2)[C@@]12C(=O)Nc1ccc(C#CC3(O)CCCCCC3)cc12', -0.133);

Next item in the queue.
Exercise: Which measured z-score value corresponds to "COCCOC(=O)N1C(=O)[C@@]2(c3cc(C#CCCO)ccc31)[C@H](c1ccc(OCCO)cc1)N1[C@H](c3ccccc3)[C@H](c3ccccc3)OC(=O)[C@H]1[C@@H]2C(=O)N1CCN(c2ncccn2)CC1" ?
Solution: 0.342
